assay: Cytotoxicity assay based on alamarBlue reagent; type: cell-based; conditions: mouse; cytotoxic concentration 50 against murine macrophages J774A.1; 24 hours at 37°C, 5% CO2; mean ± standard deviation
Endpoint Name: CC50 at 24 h (µg/mL)
Enter your answer as a number in µg/mL; do not include the unit.

Looking up CCCCCCCCCCCCCCCCOP(=O)([O-])OCC[N+](C)(C)C , I found its CC50 at 24 h recorded as 52.1

These entries and their values trace back to patent EP4541363A1.
